B1: SAT2 (parent)
chain: GYGIYYFIYSTWKGRTIYLEDIYV

Variants of: B1
Assay: protein stability index of a GFP-peptide fusion (GPS, HEK-293T) (PSI 1-6); higher = more stable;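 note: lentivirally expressed fusions sorted by FACS into six bins by GFP to DsRed ratio, PSI derived from sequencing read proportions per bin multiplied by bin number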
Settings: c terminus: a fixed tail appended
Values of protein stability index greater than or equal to 3 map to true (1); values below map to false (0).

Is the recorded value of protein stability index equal to or greater than 3 for this variant? F7N true (1)

Is the recorded value of protein stability index equal to or greater than 3 for this variant? S10P true (1)

Is the recorded value of protein stability index equal to or greater than 3 for this variant? T16M true (1)

Is the recorded value of protein stability index equal to or greater than 3 for this variant? Y5H false (0)

Is the recorded value of protein stability index equal to or greater than 3 for this variant? R15N false (0)

Is the recorded value of protein stability index equal to or greater than 3 for this variant? K13T false (0)

Is the recorded value of protein stability index equal to or greater than 3 for this variant? F7W false (0)

Is the recorded value of protein stability index equal to or greater than 3 for this variant? R15F true (1)

Is the recorded value of protein stability index equal to or greater than 3 for this variant? L19I true (1)

Is the recorded value of protein stability index equal to or greater than 3 for this variant? G14V true (1)
